- runDescription: Partition coefficient, log P of the compound
- Type: physicochemical
- particulars: octanol/water
Overview of reported logP across a group of compounds:
Number only, please.

Example results:
> print(dat)
                             smilesstructure  resulttype  resultnumber
 1  CS(=O)(=O)c1ccc(CC2CCC3(CC2)OOCCCOO3)cc1        logP          2.65
 2         O=C(CC1CCC2(CC1)OOCCCOO2)N1CCOCC1        logP          1.16
 3    FC(F)(F)c1ccc(CC2CCC3(CC2)OOCCCOO3)cc1        logP          4.79
 4            c1ccc(CC2CCC3(CC2)OOCCCOO3)cc1        logP          3.93
 5              CCOC(=O)CC1CCC2(CC1)OOCCCOO2        logP           2.2
 6         N#Cc1ccc(CC2CCC3(CC2)OOCCCOO3)cc1        logP          3.46
 7     COC(=O)c1ccc(CC2CCC3(CC2)OOCCCOO3)cc1        logP          3.75
 8           Fc1ccc(CC2CCC3(CC2)OOCCCOO3)cc1        logP          4.01
 9       C=C1COOC2(CCC(Cc3ccc(F)cc3)CC2)OOC1        logP           4.2
10  C=C1COOC2(CCC(Cc3ccc(C(F)(F)F)cc3)CC2)OOC1        logP          4.95

Now examine the next entry.
Query :: Reported logP, compound C=C1COOC2(CCC(Cc3ccc(C(=O)OC)cc3)CC2)OOC1 : ____
Result :: 4.05
